B1: SCNN1D (parent)
chain: FYRLYQDLETHRLPCTSRCPRPCR

Variants of: B1
Assay: protein stability index of a GFP-peptide fusion (GPS, HEK-293T) (PSI 1-6); higher = more stable;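 further: lentivirally expressed fusions sorted by FACS into six bins by GFP to DsRed ratio, PSI derived from sequencing read proportions per bin multiplied by bin number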
Conditions: c terminus: a fixed tail appended
Returns satisfied if the recorded protein stability index is greater than or equal to 2, and not satisfied otherwise.

Study these solved cases before continuing.
{"VARIANT": "H11I", "CLASS": "not satisfied"}
{"VARIANT": "R12Y", "CLASS": "not satisfied"}
{"VARIANT": "L8D", "CLASS": "satisfied"}
{"VARIANT": "P22R", "CLASS": "satisfied"}
{"VARIANT": "H11Q", "CLASS": "satisfied"}
{"VARIANT": "Y5T", "CLASS": "satisfied"}
{"VARIANT": "C15P", "CLASS": "not satisfied"}
{"VARIANT": "L13Y", "CLASS": "not satisfied"}
{"VARIANT": "L4I", "CLASS": "satisfied"}
{"VARIANT": "F1T", "CLASS": "satisfied"}

Here is another variant to look at.
q: Dear colleague, could you confirm whether Y2P has protein stability index at or above 2?
a: satisfied

The values you see were collected from the supplement of paper PMC10567573.
